Numbers sourced from the METLIN SMRT retention time set (Domingo-Almenara et al. 2019).

# assayText: gradient 5% acetonitrile 3 min, to 50% in 2 min, to 85% in 15 min, held 3 min, 100 µL/min
# assaySetup: column: Zorbax Extend-C18 2.1 x 50 mm; eluents: water / acetonitrile, 0.1% formic acid
Please respond with Fulfilled when measured RP-LC retention time is strictly beneath 800 s, and with Not fulfilled in all other cases.

1. COc1ccccc1-c1noc(C2CCCN2C(=O)Nc2cccc(C)c2)n1 (stereo not given) ... Not fulfilled
2. Cc1cc2ncn(Cc3ccccc3F)c2cc1C ... Fulfilled
3. COc1cc(NC(=O)N2C[C@@H](F)C[C@H]2C(=O)N2CCc3ccccc3C2)cc(OC)c1 ... Fulfilled
4. CCNc1nc(C)cc(N2CCN(C(=O)Nc3ccc(C)cc3C)CC2)n1 ... Fulfilled
5. CCN1CCN(c2ccc(-c3ccc(OC)c(S(=O)(=O)N4CCCC4)c3)nn2)CC1 ... Fulfilled
6. Clc1ccc(C(Cn2ccnc2)OCc2c(Cl)cccc2Cl)c(Cl)c1 (stereo not given) ... Not fulfilled
7. CCN1CCN(CC(=O)N2N=C(c3cccs3)CC2c2ccc(F)cc2)C(=O)C1=O (stereo not given) ... Fulfilled
8. COc1cc(NC(=O)Cn2nc3c4cc(C)ccc4ncn3c2=O)cc(OC)c1 ... Fulfilled
9. O=C(Cn1cccc1-c1nnc(C2CCC2)o1)Nc1ccc(F)c(F)c1 ... Not fulfilled
10. COCc1nc(C2CCN(C(=O)C3CCCC3)C2)no1 (stereo not given) ... Fulfilled
11. CCOC(=O)c1ccc(NS(=O)(=O)c2cc3n(c2)CCCN(C)C3=O)cc1 ... Fulfilled
12. Cc1ccc(C)c(S(=O)(=O)NCc2c(-c3ccccc3)nc3sc(C)nn23)c1 ... Not fulfilled
13. Nc1nc(N)nc(C2C=CCCC2)n1 (stereo not given) ... Fulfilled
14. COc1ccccc1CNC1=NCCNC12CCN(S(=O)(=O)c1ccc(C)cc1)CC2 ... Fulfilled
15. CCCCN(CCCC)c1nc(-c2ccccc2)nc2ccccc12 ... Not fulfilled
16. Cc1oc(C2CCN(C(=O)Cn3cnc4c3c(=O)n(C)c(=O)n4C)CC2)nc1C(=O)N1CCCC1 ... Fulfilled
17. O=C(CCCCCCC(=O)Nc1ccccc1)NO ... Fulfilled
18. CN1CCCc2cc(C(CNC(=O)C(=O)NC3CCCCC3)N(C)C)ccc21 (stereo not given) ... Fulfilled
19. CC(C)n1c(=O)c(Nc2cccc(C(F)(F)F)c2)nc2ccncc21 ... Fulfilled

====

# assayText: gradient 5% acetonitrile 3 min, to 50% in 2 min, to 85% in 15 min, held 3 min, 100 µL/min
# assaySetup: column: Zorbax Extend-C18 2.1 x 50 mm; eluents: water / acetonitrile, 0.1% formic acid
Listing of entries alongside the reported RP-LC retention time.
propertyName: RP-LC retention time (s)

1. CCc1nc2cc(-c3noc(-c4nccc5ccccc45)n3)ccc2o1 ... 1130
2. CC(C)C(=O)NCCc1csc(C2CCN(C(=O)NC(C)(C)C)CC2)n1 ... 681
3. Cn1c(=O)n(CC(N)=O)c(=O)c2c1nc1n2CCCN1C1CCCCC1 ... 657
4. CN(C)CCNC(=O)c1ccc2c(c1)N(Cc1ccc(F)cc1)C(=O)CO2 ... 616
5. CS(=O)(=O)c1ccc2nc(NC(=O)c3coc(NC(=O)c4cccs4)n3)sc2c1 ... 685

====

# assayText: gradient 5% acetonitrile 3 min, to 50% in 2 min, to 85% in 15 min, held 3 min, 100 µL/min
# assaySetup: column: Zorbax Extend-C18 2.1 x 50 mm; eluents: water / acetonitrile, 0.1% formic acid
We'd kindly ask you to apply these RP-LC retention time classes: lower band: < 800 s; central band: ≥ 800 s and < 1000 s; upper band: ≥ 1000 s

1. O=C1CCCC(=O)N1CCS(=O)(=O)N1CCC(c2nnc(-c3ccco3)s2)CC1 ... lower band
2. Cc1cccc(OCc2nc(CCN(C)C(=O)Nc3ccccc3C)no2)c1 ... central band
3. CCc1nnc(C2CN(C)CC23CCN(S(=O)(=O)c2ccccc2C)CC3)o1 (stereo not drawn) ... lower band
4. COCCCNC(=O)C1CCN(c2ccc(Sc3ccc(C(C)C)cc3)nn2)CC1 ... central band
5. CCCn1cnc2cc(-c3noc(C(NC(=O)c4ccco4)C(C)C)n3)ccc21 (stereo not drawn) ... lower band
6. O=C(c1cc2c(s1)CCC(C(=O)N1CCN(C3CCCC3)CC1)C2)N1CCCC1 (stereo not drawn) ... lower band
7. COc1ccc2c(c1)C1CC(C)(O2)N(C)C(=O)C1S(=O)(=O)c1ccccc1 (stereo not drawn) ... central band
8. CN(Cc1ccccc1)C(=O)c1cn2ccncc2n1 ... lower band
9. Cc1ccc(NC(=O)Nc2nccn(-c3ccc(C)c(C)c3)c2=O)cc1C ... upper band
10. Cc1nc(CC(=O)Nc2nc(-c3ccc(F)cc3)c(C)s2)cs1 ... central band
11. Cc1[nH]nc(-c2c(C)sc(C)c2S(=O)(=O)Nc2ccc(F)c(Cl)c2)c1C ... upper band
12. COc1ccc(-c2nc(CNC(=O)c3coc(-c4ccccc4)n3)no2)cc1 ... central band
13. CCN1C(=O)c2cccnc2Sc2cc(C(=O)N3CCCC3)ccc21 ... lower band
14. CCN(CC)C(=O)c1ccc(-c2nc3cc(NS(=O)(=O)c4ccc(F)c(F)c4)ccc3n2C)cc1 ... lower band
15. O=C(CCc1ccccc1)N1CCN(c2nc(CN3CCOCC3)cs2)CC1 ... lower band
16. Cc1cc(=O)n(CC(=O)Nc2ccc(Cl)cc2)c(N2CCCC2)n1 ... lower band
17. Cn1cc(-c2nc(C(=O)NCc3ccc(C(F)(F)F)cc3)cs2)c2cccnc21 ... upper band
18. COc1ccc(Cl)cc1NC(=O)NCCc1cn(C)c2ncccc12 ... lower band
19. Cc1cccc(-c2nc(Cn3nnc(C(=O)NCc4ccc(F)c(Cl)c4)c3C)c(C)o2)c1 ... upper band
20. Cc1ccc(-c2nc(NC(=O)c3cc4ccccc4o3)sc2C)cc1 ... upper band
21. O=C1CC(C(=O)N2CCc3ccccc3C2)CN1CCc1c[nH]c2ccc(Cl)cc12 (stereo not drawn) ... central band
22. O=C(CN1CCCc2nc(C3CC3)ncc2C1=O)NCc1ccco1 ... lower band
23. Cc1ccc(NC(=O)Cn2c(=O)n(-c3ccc(F)cc3)c(=O)c3c2cc(C)n3C)cc1Cl ... central band
24. CCOc1ccc(-n2c(=O)c3sccc3n(Cc3nc(-c4ccccc4OC)no3)c2=O)cc1 ... central band
25. CCCCn1c(=O)c2ccccc2n(Cc2nc(-c3cc(OC)cc(OC)c3)no2)c1=O ... upper band
26. CN(C)C(=O)c1cccc(COc2ccc(N3C(N)=NC(N)=NC3(C)C)cc2Cl)c1 ... lower band
27. COc1ccc(S(=O)(=O)N2CCc3nc(-c4ccc(Cl)cc4)ncc3C2)cc1 ... upper band
28. Cc1cccc(CN2CCCN(CC(=O)NC(C)CCc3ccccc3)S2(=O)=O)c1 (stereo not drawn) ... upper band
29. CCCNC(=O)CCNc1c(-c2ccc(F)cc2)nc2cnccn12 ... lower band
30. COc1cccc(-c2nc(N3CCCCC3)ncc2C(=O)O)c1 ... central band
31. Cc1cccc(-n2c(=O)c3c(cc(C)n3C)n(CC(=O)Nc3cccc(Cl)c3C)c2=O)c1 ... central band

====

# assayText: gradient 5% acetonitrile 3 min, to 50% in 2 min, to 85% in 15 min, held 3 min, 100 µL/min
# assaySetup: column: Zorbax Extend-C18 2.1 x 50 mm; eluents: water / acetonitrile, 0.1% formic acid
Categorized via RP-LC retention time: category 1: < 800 s; category 2: ≥ 800 s and < 900 s; category 3: ≥ 900 s

1) Cc1nc2c(sc3nc(-c4ccccc4)ccc32)c(=O)n1CC(=O)Nc1cccc(C(F)(F)F)c1 ... category 3
2) Cc1cccc(C)c1-n1nnc(C(=O)NCC2CCCO2)c1C (centres undefined) ... category 1
3) O=C1CN(C(=O)CCC[C@@H]2[C@H]3CCCN4CCC[C@@H](CN2C(=O)c2cccnc2)[C@@H]34)CCN1 ... category 1
4) COc1ccccc1-c1nnc(NC(=O)C2CCCN2S(=O)(=O)c2ccc(F)cc2)o1 (centres undefined) ... category 1
5) O=C(NC1CCCCC1)C1CCN(S(=O)(=O)c2cc(-c3noc(C4CCC4)n3)cs2)CC1 ... category 3
6) Cc1cc(N2CCN(C)CC2)nc2ccc(NC(=O)Nc3ccccc3)cc12 ... category 1
7) O=C(Nc1ccccc1)N1CCN(c2ncccc2-c2nnc(C3CC3)o2)CC1 ... category 1
8) Cc1ccc(-c2nc(Nc3ccc(Cl)cc3Cl)sc2CC(=O)O)cc1 ... category 3
9) Cc1ccc2[nH]cc(CCN3CC(C(=O)Nc4cccc(F)c4)CC3=O)c2c1 (centres undefined) ... category 2
10) O=C(c1c(F)cccc1F)N1CCC2(CC1)N=C(c1ccc(Cl)cc1)NO2 ... category 2
11) CCOC(=O)c1cccc(Nc2c(C(=O)N3CCCCC3CC)cnc3nc(C)ccc23)c1 (centres undefined) ... category 1
12) O=C(CSc1ccc(-n2cccn2)nn1)NCc1cccs1 ... category 1
13) CCn1cc(-c2ccc(Cl)cc2)cc1C(=O)N1CCOCC1 ... category 3
14) COc1ccc(-n2c(=O)c(C(=O)Nc3ccccc3)c(O)c3cccnc32)cc1 ... category 3
15) Oc1ccccc1CN1CCN(c2cc(-c3ccccc3)[nH]n2)CC1 ... category 1
16) Cc1ccc2oc(C(=O)Nc3ccnn3Cc3ccccc3)cc(=O)c2c1 ... category 2
